# procedure.text: small-molecule microarray binders of probe aDKK1, primary screen, biochemical, biotinylated probe, 635/667 nm fluorescence (AID 1099);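 also: score merges 667nm spot fluorescence with signal to noise across triplicate slides; reference of the scale not given here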
# protocol.conditions: higher = more signal
Label class 1 when composite z-score is at or above -0.3; otherwise label class 0.

Examples from the recorded data:
compound | assigned.class
O=C1C[C@@H](O)[C@@H](O)[C@@H]2[C@@H]3C(=O)N(c4ccc(F)cc4F)C(=O)[C@@H]3CC[C@H]12 | class 1
COc1ccc(O[C@H]2C=C[C@@H](c3ccccc3)O[C@@H]2CON=C(C)CCN2CCCc3nc(C)c(C)cc32)cc1 | class 0
CC(=O)OC[C@H]1O[C@H](CC=NO[C@@H](C)c2cc(-c3c(C)cc(C)cc3C)no2)C=C[C@@H]1OC(C)=O | class 0

Task item: Does the reported composite z-score for COC(=O)[C@H](C)NC(=O)CC=C[C@@H](C)[C@@H]1C=C[C@H](O)[C@@H](CO)O1 fall at or above the -0.3 mark?
Reply: class 0

Task item: Dear colleague, could you confirm whether CCc1cc2c(nc1CC)CCN(CCC(C)=NOC(C)CN1CCCCc3nc(C)c(C)cc31)C2 (stereo not drawn) has composite z-score at or above -0.3?
Reply: class 1

Task item: Could you tell me if the measured composite z-score of O=C1[C@H]2[C@H]3[C@H](O)[C@H](O)CC(=NO[C@@H]4O[C@H](CO)[C@@H](O)[C@H](O)[C@H]4O)[C@@H]3CC[C@H]2C(=O)N1C1CCCCC1 reaches -0.3 or more?
Reply: class 1

Task item: Is composite z-score at least -0.3? Consider C[C@H]1CC[C@H]2C(=O)O[C@H](CO)CN2[C@@H]1c1ccc(Br)cc1
Reply: class 1

Task item: Answer whether composite z-score of CCOC(=O)[C@H](CC(C)C)NC(=O)CCC1CC(OC(=O)NCc2ccc3c(c2)OCO3)CC2(CCCC(COC(=O)NCc3ccccc3)O2)O1 (stereo partly drawn) is greater than or equal to -0.3.
Reply: class 1

----------
Listed here: items and their measured composite Z-score.
# procedure.text: small-molecule microarray binders of probe aXIP, primary screen, biochemical, NeuroSMM set, 635/667 nm fluorescence (AID 1119);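 also: probe is the protein aXip251-270 applied at 1 µg/mL to compound-printed slides; binding of probe to printed compounds measured as 667 nm fluorescence plus signal to noise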
# protocol.conditions: higher = more signal, called active from +8 up or from −8 down
Active and inactive are the calls of the source.

Here's what some known entries look like.
compound | composite Z-score
CCc1cc2c(nc1CC)CCN(CCC(C)=NO[C@@H]1O[C@H](COC(C)=O)[C@@H](OC(C)=O)[C@H](OC(C)=O)[C@H]1OC(C)=O)C2 | -0.0798 (inactive)
CCCNC(=O)OC[C@H]1O[C@H](CCON=C2C[C@@H](O)[C@@H](O)[C@@H]3[C@@H]4C(=O)N(CC)C(=O)[C@@H]4CC[C@@H]23)C=C[C@@H]1Oc1ccc(OC)cc1 | -0.477 (inactive)

Consider the additional compound presented here.
Sure, the documented composite Z-score for CCOC(=O)[C@H](Cc1ccccc1)NC(=O)CCC1CC(OC(=O)NCCc2ccc(F)cc2)CC2(CCCC(COC(=O)NCc3cccc(C(F)(F)F)c3)O2)O1 (stereo partly drawn) is 1.43 (inactive)

----------
Each record here notes measured z-score.
# procedure.text: HepG2 cell viability effects, profiling panel, calcein-AM fluorescence, 48 h, basal (AID 1164); also: test concentration not given here
# protocol.conditions: higher = more signal
Answer with the value's number alone.

Solved cases below.
compound | endpoint.label | recorded.value
CCc1cc2c(nc1CC)CCN(CCC(C)=NO[C@@H]1O[C@H](COC(C)=O)[C@@H](OC(C)=O)[C@H](OC(C)=O)[C@H]1OC(C)=O)C2 | z-score | -0.536
CCN1C(C)=C(C(=O)OC)[C@@H](c2ccccc2)N2C(=O)[C@](O)(C(=O)OC)CC(C(C)=O)=C12 | z-score | 0.634
C=CC[C@@H]1C=C[C@H](ON=C(C)CCN2CCCCc3nc(C)c(C)cc32)[C@@H](CO)O1 | z-score | -0.389
CC(=O)OC[C@H]1O[C@H](CC=NO[C@@H](C)c2cc(-c3c(C)cc(C)cc3C)no2)C=C[C@@H]1OC(C)=O | z-score | -0.799

Form: compound = CCc1cc2c(nc1CC)CCN(CCC(C)=NOC[C@@H](C)[C@H](OCc1ccccc1)C(C)C)C2 ; z-score = 1.43

Input COCCNC(=O)OCC1CCCC2(CC(OC(=O)NCc3cccc4ccccc34)CC(CCC(=O)N[C@@H](C)C(=O)OC)O2)O1 (some centres not stated) . Output z-score: 0.791

Entry CCCNC(=O)OC[C@H]1O[C@H](CCON=C2c3cc(OC)ccc3O[C@H](c3cccc(OC)c3)[C@H]2O)C=C[C@@H]1Oc1ccc(OC)cc1 , z-score reported as -0.0825

----------
# system: Luciferin 4-monooxygenase (Photinus pyralis) (UniProt P08659)
# Sequence (P08659 whole entry, looked up): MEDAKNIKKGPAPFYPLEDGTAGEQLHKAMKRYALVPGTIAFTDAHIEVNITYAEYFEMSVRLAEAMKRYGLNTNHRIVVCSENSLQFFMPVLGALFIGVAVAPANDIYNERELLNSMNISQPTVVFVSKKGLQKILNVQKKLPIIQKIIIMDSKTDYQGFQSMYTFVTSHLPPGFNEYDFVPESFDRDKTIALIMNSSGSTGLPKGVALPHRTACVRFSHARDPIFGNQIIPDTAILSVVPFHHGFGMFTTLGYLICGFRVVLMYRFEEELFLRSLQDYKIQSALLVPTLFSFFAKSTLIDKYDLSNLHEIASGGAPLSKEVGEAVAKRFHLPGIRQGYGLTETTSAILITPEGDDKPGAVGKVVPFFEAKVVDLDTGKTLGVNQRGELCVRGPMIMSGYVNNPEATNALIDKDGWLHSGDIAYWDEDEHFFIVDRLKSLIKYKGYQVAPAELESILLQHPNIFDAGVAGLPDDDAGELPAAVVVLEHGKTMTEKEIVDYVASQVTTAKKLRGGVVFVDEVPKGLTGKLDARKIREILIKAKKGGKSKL
# procedure.text: firefly luciferase enzyme inhibitors, primary screen, biochemical, luminescence, purified enzyme, 2006 set (AID 1141);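 also: cell-free assay with purified firefly luciferase at 100 ng per well in PBS; test concentration not given here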
# protocol.conditions: SteadyGlo luminescence, 30 min, higher = more signal, called active from +8 up or from −8 down
endpoint.label: z-score
Keep the answer to the number alone.

Answered examples (3):
smiles | z-score
CCc1cc2c(nc1CC)CCN(CCC(C)=NO[C@@H]1O[C@H](COC(C)=O)[C@@H](OC(C)=O)[C@H](OC(C)=O)[C@H]1OC(C)=O)C2 | 1.03
CC(C)=CCCC(C)=CCON=C1C[C@@H](O)[C@@H](O)[C@@H]2[C@@H]3C(=O)N(C4CCCCC4)C(=O)[C@@H]3CC[C@H]12 | -0.0223
CCN1C(=O)[C@H]2[C@H]3[C@H](O)[C@H](O)CC(=NO[C@@H]4O[C@H](COC(C)=O)[C@@H](OC(C)=O)[C@H](OC(C)=O)[C@H]4OC(C)=O)[C@@H]3CC[C@H]2C1=O | 1.15

Next compound, z-score to be filled in.
Case CON=C[C@@H](OC)[C@H](C)C=CCC(=O)OC , Luciferin 4-monooxygenase (Photinus pyralis) (UniProt P08659), z-score recorded as -0.982

----------
# procedure.text: fission yeast growth modulation, primary screen, strain 972, OD600, 24 h, no modulator (AID 1090);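 also: basal condition with compound alone and no growth modifier present; test concentration not given here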
# protocol.conditions: S. pombe 972 growth, higher = more signal, called active from +8 up or from −8 down
endpoint.label: z-score
Form: value (number only, do not type unit).

molecule | z-score
CC1(C)O[C@H]2O[C@H]([C@H](O)CON=C3[C@H]4CCn5c(=O)n(-c6ccccc6)c(=O)n5[C@H]4[C@H](O)[C@@H]4O[C@H]34)[C@H](O)[C@H]2O1 | -0.347
CO[C@@H](C1CCCCC1)[C@@H](C)[C@H](OCc1cccc(Br)c1)[C@@H](C)CO | -16.4
COc1ccc(O[C@H]2C=C[C@@H](c3ccccc3)O[C@@H]2COC(=O)CCC(C)=NOC[C@@H](O)COCc2ccco2)cc1 | -0.761
CC(C)C(=O)N[C@H]1CCCN1C(=O)C=Cc1ccccc1 | 0.495
CCOC(=O)[C@H](Cc1ccccc1)NC(=O)CCC1CC(OC(=O)NCc2ccc3c(c2)OCO3)CC2(CCCC(COC(=O)NCCc3ccc(Cl)cc3)O2)O1 (some centres not stated) | -0.616

For record CC(C)(C)N1C(=O)[C@H]2[C@H]3[C@H](O)[C@H](O)CC(=NNC(=O)OCc4ccccc4)[C@@H]3CC[C@H]2C1=O the listed z-score is 0.588

Just so you know, measured z-score for O=C1C2=CC[C@H]3C(=O)N(C[C@@H]4CCCO4)C(=O)[C@H]3[C@H]2[C@H](O)[C@@H]2O[C@H]12 came out at -0.722

----------
# procedure.text: basal HepG2 mitochondrial membrane potential changes, profiling panel, cell-based, JC-1 fluorescence, 24 h, 100 nL compound (AID 1167); also: test concentration not given here
# protocol.conditions: higher = more signal
endpoint.label: z-score
I'd appreciate a reply containing only the number, no unit.

Sample answers from the record:
compound | z-score
O=C1C=C[C@@H](O)[C@@H]2[C@@H]3C(=O)N(Cc4ccc5c(c4)OCO5)C(=O)[C@@H]3CC[C@@H]12 | -0.214
CCOC(=O)CCN1C(=O)[C@H]2[C@H]3[C@H](O)[C@H](O)CC(=NNC(=O)OCc4ccccc4)[C@H]3CC[C@H]2C1=O | -0.952
O=C1[C@H]2[C@H]3[C@H](O)[C@H](O)CC(=NOC[C@@H](O)COCc4ccco4)[C@@H]3CC[C@H]2C(=O)N1Cc1ccccc1 | -0.083

With those in mind, consider the next compound.
# z-score of CCOC(=O)[C@H](Cc1ccccc1)NC(=O)CCC1CC(OC(=O)NCCc2ccc(F)cc2)CC2(CCCC(COC(=O)NCCC(C)C)O2)O1 (some centres undefined) = 0.362

----------
Entries and their z-score
# procedure.text: E. coli acrAB mutant growth effects, primary screen, E. coli filamentation inducers, strain DRC39, OD650, 48 h (AID 1179);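 also: screen aims at cell division blockers that make cells filament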
# protocol.conditions: E. coli DRC39 delta-acrAB growth, higher = more signal, called active from +8 up or from −8 down
Active and inactive are the calls of the source.

A selection of reference data follows.
compound | z-score
CC(C)CON=C1C[C@@H](O)[C@@H](O)[C@@H]2[C@@H]3C(=O)N(C(C)(C)C)C(=O)[C@@H]3CC[C@@H]12 | -1.13 (inactive)
C=CC[C@@H]1C=C[C@H](ON=C(C)CCN2CCCCc3nc(C)c(C)cc32)[C@@H](CO)O1 | -0.681 (inactive)
CC(C)(C)N1C(=O)[C@H]2[C@H]3[C@H](O)[C@H](O)CC(=NNC(=O)OCc4ccccc4)[C@@H]3CC[C@H]2C1=O | 0.342 (inactive)
CC(C)[C@@H](OCc1ccccc1)[C@H](C)C=NO[C@@H](C)c1cn([C@H](CO)Cc2ccccc2)nn1 | 0.633 (inactive)
COC(=O)CC=C[C@@H](C)[C@@H](C=NOC(C)CN1CCCc2nc(C)c(C)cc21)NS(=O)(=O)c1ccc(C)cc1 (stereo partly drawn) | -0.0007 (inactive)

compound CO[C@@H]1COC(=O)[C@H](CCSC)NC(=O)CC=C[C@@H](C)COC(=O)[C@@H]2CCCN2C(=O)CC=C[C@H]1C , z-score observed: -0.733 (inactive)

For record COC(=O)[C@H](Cc1ccccc1)NC(=O)[C@@H](C)CO the listed z-score is -0.84 (inactive)

The reported value for COC(=O)[C@@H]1CC[C@H](C)[C@@H](c2ccc(Br)cc2)N1C[C@@H](O)CN=[N+]=[N-] in terms of z-score is -2.14 (inactive)

FYI, the data here is from PubChem BioAssay.
